Source: BigSolDB 2.1

conditions: in water, 308.15 K
readout.label: solubility (mole fraction)
Give bare numbers.

solubility (mole fraction) lookup needed for "O=C([O-])c1cccc(S(=O)(=O)O)c1.[Na+]" , thanks. 0.0459

---

conditions: in water, 303.15 K
readout.label: solubility (mole fraction)

solubility (mole fraction) lookup needed for "O=C([O-])c1cccc(S(=O)(=O)O)c1.[Na+]" , thanks. 0.0417

---

settings: in water, 313.15 K
readout.label: solubility (mole fraction)
One number for each entry.

solubility (mole fraction) lookup needed for "O=C([O-])c1cccc(S(=O)(=O)O)c1.[Na+]" , thanks. 0.0519

---

conditions: in water, 293.15 K
readout.label: solubility (mole fraction)
Give bare numbers.

solubility (mole fraction) lookup needed for "O=C([O-])c1cccc(S(=O)(=O)O)c1.[Na+]" , thanks. 0.0346
